test: Cell viability for BIA and analogues, HT1080 cell line; format: cell-based; conditions: human, HT1080 fibrosarcoma cells, HT1080, 5 uM
Counter-ions that a name gives are not always drawn.
value.type: viability at 5 µM (%)
Answer with a number only, understood to be in %.

compound: COc1cccc(/C=C/C(=O)c2ccccc2N)c1
value.type: viability at 5 µM
meas.value: 101
--
compound: Nc1cccc(/C=C/C(=O)c2ccccc2N)c1 [GM-90315, Hydrochloride]
value.type: viability at 5 µM
meas.value: 41.1
--
compound: O=C(/C=C/c1cccc([N+](=O)[O-])c1)c1ccccc1
value.type: viability at 5 µM
meas.value: 102
--
compound: COc1cc(N)c(C(=O)/C=C/c2cc(O)cc(Br)c2)cc1OC
value.type: viability at 5 µM
meas.value: 61.2
--
compound: CCOc1ccc([N+](=O)[O-])cc1/C=C/C(=O)c1ccccc1N
value.type: viability at 5 µM
meas.value: 64.4
--
compound: CNC(=O)c1cccc(/C=C/C(=O)c2ccccc2N)c1
value.type: viability at 5 µM
meas.value: 99.5
--
compound: COc1ccccc1C(=O)/C=C/c1cccc([N+](=O)[O-])c1
value.type: viability at 5 µM
meas.value: 99.1
--
compound: Nc1ccccc1C(=O)/C=C/c1ccc2ccccc2c1
value.type: viability at 5 µM
meas.value: 70.5
--
compound: Nc1ccccc1C(=O)/C=C/c1cc(O)cc(Br)c1
value.type: viability at 5 µM
meas.value: 11.4

Using the record for Nc1ccccc1C(=O)/C=C/c1cccc(C(=O)O)c1 , report its viability at 5 µM.
107

---

experiment: Cell viability for BIA and analogues, DU145 cell line; format: cell-based; settings: human; DU145, 10 uM
Structures can show the parent of a compound that is named as a salt.
Item-by-item account of viability at 10 µM
Write the answer as a number in %, unit excluded.

compound: Nc1cccc(/C=C/C(=O)c2ccccc2N)c1 [GM-90315, Hydrochloride]
value.type: viability at 10 µM
unit.abbrev: %
meas.value: 98
--
compound: COc1cc(N)c(C(=O)/C=C/c2cc(O)cc(Br)c2)cc1OC
value.type: viability at 10 µM
unit.abbrev: %
meas.value: 83.6
--
compound: COc1ccccc1C(=O)/C=C/c1cccc([N+](=O)[O-])c1
value.type: viability at 10 µM
unit.abbrev: %
meas.value: 31.5
--
compound: Nc1ccc(F)cc1C(=O)/C=C/c1cccc([N+](=O)[O-])c1
value.type: viability at 10 µM
unit.abbrev: %
meas.value: 68.9
--
compound: COc1ccc(C(=O)/C=C/c2cccc([N+](=O)[O-])c2)c(N)c1
value.type: viability at 10 µM
unit.abbrev: %
meas.value: 85.7
--
compound: COc1cc(N)c(C(=O)/C=C/c2cccc([N+](=O)[O-])c2)cc1OC
value.type: viability at 10 µM
unit.abbrev: %
meas.value: 61.1
--
compound: Nc1ccccc1C(=O)/C=C/c1cccc([N+](=O)[O-])c1
value.type: viability at 10 µM
unit.abbrev: %
meas.value: 91.4
--
compound: Nc1ccccc1C(=O)/C=C/c1cccc(Cl)c1
value.type: viability at 10 µM
unit.abbrev: %
meas.value: 32.4
--
compound: Nc1ccccc1-c1cc(-c2cccc(C(F)(F)F)c2)on1
value.type: viability at 10 µM
unit.abbrev: %
meas.value: 92.9
--
compound: COc1cccc(/C=C/C(=O)c2ccccc2N)c1
value.type: viability at 10 µM
unit.abbrev: %
meas.value: 81.5

Look up viability at 10 µM for this compound: COc1cc(N)c(C(=O)/C=C/c2cccc(C(F)(F)F)c2)cc1OC
89.1

Do the same for Nc1ccccc1C(=O)/C=C/c1cccc(C(=O)O)c1 please
91

Another compound to check: CC(C)(C)c1ccc(/C=C/C(=O)c2ccccc2N)cc1
31.8

Can you check Nc1ccccc1-c1cc(-c2cccc(C(F)(F)F)c2)ncn1 next?
95.3

Next up: Nc1ccccc1C(=O)/C=C/c1ccc([N+](=O)[O-])cc1
50.5
